// values below are reported NF-kB SEAP reporter activity
# Test system: RAW-Dual
# protocol.notes: NF-kB SEAP reporter activity, fold change vs agonist alone; cytotoxicity flag (confluency mask): cytotoxic (confluency <70% of control); higher = enhanced NF-kB activity
# setup.conditions: agonist: LPS (TLR4) 0.1 ug/mL
In all, about 2,900 compounds were measured (“NF-kB SEAP reporter activity, fold change vs agonist alone”: median about 0.99, highest 2% from about 2.6 on). Many of the other results were omitted from the sample, so the highest values are more common in it than they were.

{"columns": ["molecule", "NF-kB SEAP reporter activity"],
 "data": [
  ["C=CCNC1=C2CC(C)CC(OC)C(O)C(C)/C=C(\\C)C(OC(N)=O)C(OC)/C=C\\C=C(/C)C(=O)NC(=CC1=O)C2=O (stereo unspecified) (library stock concentration (final ~1000-fold dilution): 10 mM)", 0.289],
  ["OC1C=C2CCN3Cc4cc5c(cc4C(C1O)C23)OCO5 (stereo unspecified) (library stock concentration (final ~1000-fold dilution): 10 mM)", 1.54],
  ["CN1CCN(c2nc(C3=C(c4c[nH]c5ccccc45)C(=O)NC3=O)c3ccccc3n2)CC1 (library stock concentration (final ~1000-fold dilution): 10 mM)", 2.03],
  ["CN(CCNCc1cn(Cc2ccc(Cl)cc2)nn1)CCNc1ccnc2cc(Cl)ccc12.O=C(O)C(F)(F)F (library stock concentration (final ~1000-fold dilution): 10 mM)", 2.67],
  ["Cc1cc(O)c(-c2ccc(C(C)CN(C)C)cc2)c2c1[nH]c(=O)c1sccc12.Cl.Cl (stereo unspecified) (library stock concentration (final ~1000-fold dilution): 10 mM)", 0.764],
  ["O=C(Nc1ccc2[nH]nc(-c3ccc4[nH]ccc4c3)c2c1)c1c(Cl)cccc1Cl (library stock concentration (final ~1000-fold dilution): 10 mM)", 0.946],
  ["CN(CCNc1ccnc2cc(Cl)ccc12)CCNc1ccnc2cc(Cl)ccc12.Cl.Cl.Cl (library stock concentration (final ~1000-fold dilution): 10 mM)", 4.28],
  ["COc1ccc2cc1Oc1ccc(cc1)CC1c3cc(c(OC)cc3CCN1C)Oc1c(O)c(OC)cc3c1C(C2)N(C)CC3 (stereo unspecified) (library stock concentration (final ~1000-fold dilution): 10 mM)", 1.81],
  ["CCC(=O)Nc1cccc(Oc2nc(Nc3ccc(N4CCN(C)CC4)cc3OC)ncc2Cl)c1 (library stock concentration (final ~1000-fold dilution): 10 mM)", 1.65],
  ["Cc1cc(Nc2ncc3c(n2)N(C)C(=O)N(c2cc(NC(=O)c4cccc(C(F)(F)F)c4)ccc2C)C3)n(C)n1 (library stock concentration (final ~1000-fold dilution): 10 mM)", 0.283],
  ["CCN(CC)CCCCNc1ncc2cc(-c3cc(OC)cc(OC)c3)c(NC(=O)NC(C)(C)C)nc2n1 (library stock concentration (final ~1000-fold dilution): 10 mM)", 0.324],
  ["Cc1[nH]c(/C=C2\\C(=O)Nc3ccc(S(=O)(=O)Cc4c(Cl)cccc4Cl)cc32)c(C)c1C(=O)N1CCCC1CN1CCCC1 (stereo unspecified) (library stock concentration (final ~1000-fold dilution): 10 mM)", 0.658],
  ["CCCCc1nc(-c2ccc(OCCCN(CC)CC)cc2)cn1-c1ccc(Oc2ccc(Cl)cc2)cc1 (library stock concentration (final ~1000-fold dilution): 10 mM)", 0.281],
  ["CS(=O)(=O)O.Fc1ccc(C2CCNCC2COc2ccc3c(c2)OCO3)cc1 (stereo unspecified) (library stock concentration (final ~1000-fold dilution): 10 mM)", 1.08],
  ["COc1ccc2c(c1)c(C1=C(c3c[nH]c4ccccc34)C(=O)NC1=O)cn2CCCN(C)C (library stock concentration (final ~1000-fold dilution): 10 mM)", 1.23],
  ["CCCCc1nc2cc(/C=C/C(=O)NO)ccc2n1CCN(CC)CC (library stock concentration (final ~1000-fold dilution): 10 mM)", 4.93],
  ["CC(C)(C)c1nc(-c2ccc(NC(=O)Nc3cccc(C(F)(F)F)c3)c3ccccc23)c2c(N)nccn12 (library stock concentration (final ~1000-fold dilution): 10 mM)", 0.488],
  ["O=C(Nc1ccc([N+](=O)[O-])cc1O)Nc1ccccc1Br (library stock concentration (final ~1000-fold dilution): 10 mM)", 2.98],
  ["CCC1C(=O)N(C)c2cnc(Nc3ccc(C(=O)NC4CCN(C)CC4)cc3OC)nc2N1C1CCCC1 (stereo unspecified) (library stock concentration (final ~1000-fold dilution): 10 mM)", 0.276],
  ["CC(C)CNc1ccnc(NCc2csc(-c3ccccc3)n2)n1.Cl (library stock concentration (final ~1000-fold dilution): 10 mM)", 1.62],
  ["COc1cc(C(=O)NC2CCN(C)CC2)ccc1Nc1ncc2c(n1)N(C1CCCC1)CC(F)(F)C(=O)N2C (library stock concentration (final ~1000-fold dilution): 10 mM)", 5.16]
]}
